Each record here notes measured GFP ratio to DMSO.
system: YKL103C; test: TOR pathway GFP reporter clone modulation in yeast – S. cerevisiae, GFP-tagged clone panel, flow cytometry (AID 504473);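 also: median GFP fluorescence of the cells measured by high-throughput flow cytometry; test concentration not given here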; settings: S. cerevisiae GFP-tagged strains, 3 h
Reported Metric: GFP ratio to DMSO

Molecule	Number
CNc1nc(N)c([N+](=O)[O-])c(Nc2ccccc2)n1	0.988
CNc1nc(N)c([N+](=O)[O-])c(Nc2cccc(F)c2)n1	2.2
CNc1nc(N)c([N+](=O)[O-])c(Nc2cccc(Cl)c2)n1	1.21
CO[C@H]1C[C@@H]2CC[C@@H](C)[C@@](O)(O2)C(=O)C(=O)N2CCCC[C@H]2C(=O)O[C@H]([C@H](C)C[C@@H]2CC[C@@H](O)[C@H](OC)C2)CC(=O)[C@H](C)/C=C(\C)[C@@H](O)[C@@H](OC)C(=O)[C@H](C)C[C@H](C)/C=C/C=C/C=C/1C	2.8
CNc1nc(N)c([N+](=O)[O-])c(Nc2ccccc2OC)n1	0.755

====

test system: YLR109W; assay: TOR pathway GFP reporter clone modulation in yeast – S. cerevisiae, GFP-tagged clone panel, flow cytometry (AID 504473);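 also: median GFP fluorescence of the cells measured by high-throughput flow cytometry; test concentration not given here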; settings: S. cerevisiae GFP-tagged strains, 3 h
Reported Metric: GFP ratio to DMSO

Molecule	Target	Reported Metric	Number
CNc1nc(N)c([N+](=O)[O-])c(Nc2ccccc2OC)n1	YLR109W	GFP ratio to DMSO	0.271
CNc1nc(N)c([N+](=O)[O-])c(Nc2ccccc2)n1	YLR109W	GFP ratio to DMSO	1.17
CNc1nc(N)c([N+](=O)[O-])c(Nc2cccc(Cl)c2)n1	YLR109W	GFP ratio to DMSO	1.3
CNc1nc(N)c([N+](=O)[O-])c(Nc2cccc(F)c2)n1	YLR109W	GFP ratio to DMSO	1.39
CO[C@H]1C[C@@H]2CC[C@@H](C)[C@@](O)(O2)C(=O)C(=O)N2CCCC[C@H]2C(=O)O[C@H]([C@H](C)C[C@@H]2CC[C@@H](O)[C@H](OC)C2)CC(=O)[C@H](C)/C=C(\C)[C@@H](O)[C@@H](OC)C(=O)[C@H](C)C[C@H](C)/C=C/C=C/C=C/1C	YLR109W	GFP ratio to DMSO	1.43

====

tested on: YPR145W; test: TOR pathway GFP reporter clone modulation in yeast – S. cerevisiae, GFP-tagged clone panel, flow cytometry (AID 504473);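 also: median GFP fluorescence of the cells measured by high-throughput flow cytometry; test concentration not given here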; details: S. cerevisiae GFP-tagged strains, 3 h
Calls of active or inactive are those of the source.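 Rule for the calls: active = GFP ratio to DMSO above 1.5 or below 0.66; inactive = the rest.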
Classes used: active, inactive

Molecule	Category
CO[C@H]1C[C@@H]2CC[C@@H](C)[C@@](O)(O2)C(=O)C(=O)N2CCCC[C@H]2C(=O)O[C@H]([C@H](C)C[C@@H]2CC[C@@H](O)[C@H](OC)C2)CC(=O)[C@H](C)/C=C(\C)[C@@H](O)[C@@H](OC)C(=O)[C@H](C)C[C@H](C)/C=C/C=C/C=C/1C	active
CNc1nc(N)c([N+](=O)[O-])c(Nc2ccccc2OC)n1	inactive
CNc1nc(N)c([N+](=O)[O-])c(Nc2ccccc2)n1	inactive
CNc1nc(N)c([N+](=O)[O-])c(Nc2cccc(F)c2)n1	active
CNc1nc(N)c([N+](=O)[O-])c(Nc2cccc(Cl)c2)n1	inactive
